pIC50: −log10 of the molar value.
What follows is a collection of pIC50 values obtained with human IL-17A (Homo sapiens).
readout kind: pIC50

compound	pIC50
COCC(c1ccnc(NC(=O)C(NC(=O)C(F)(F)c2ccc(OC)nc2)C2CCC(C)CC2)c1)N1CC(C(F)(F)F)NC1=O (single isomer, unassigned)	7.31

[I] CCc1nonc1C(=O)N[C@H](C(=O)Nc1cc(C[C@H]2C[C@@H](C(F)(F)F)NC2=O)ccn1)C1CCC(F)(F)CC1
[II] CC(C)n1nccc1C(=O)N[C@H](C(=O)Nc1cc(CN2C[C@@H](C(F)(F)F)NC2=O)ccn1)C(C1CC1)C1CC1
Query :: Compare I and II by numeric pIC50 and name the larger one. When you have decided, please share the label of that item.
Result :: I
(I: 7.32, II: 7.04)

----------
Protein target, amino acids: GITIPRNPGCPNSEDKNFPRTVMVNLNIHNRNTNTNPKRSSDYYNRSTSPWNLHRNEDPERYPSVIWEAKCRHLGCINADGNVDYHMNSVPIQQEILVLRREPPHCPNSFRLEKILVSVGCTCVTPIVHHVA
readout kind: IC50 (nM)

molecule	IC50 (nM)
Cc1nonc1C(=O)N[C@H](C(=O)Nc1cc(CN2C[C@@H](C(F)(F)F)NC2=O)ccn1)C(C1CC1)C1CC1	448
CCC(c1ccnc(NC(=O)C(NC(=O)c2ccnn2C)C2CCC(C)CC2)c1)N1CC(C(F)(F)F)NC1=O (centres unmarked)	6
Cn1nccc1C(=O)N[C@H](C(=O)Nc1cc(OC2CCNC2=O)ccn1)[C@H]1CC[C@H](C)CC1 (some centres unmarked)	8970

[P] CN1C[C@H]2[C@@H]([C@H]1C(=O)N[C@H](C(=O)Nc1cc(C(NC(=O)CCC(F)(F)F)C3CC3)ccn1)C(C1CC1)C1CC1)C2(C)C (single isomer, unassigned)
[Q] COCC(NC(=O)CCC(F)(F)F)c1ccnc(NC(=O)[C@@H](NC(=O)c2nonc2C2CC2)C2CCC(F)(F)CC2)c1 (single isomer, unassigned)
Query :: Compare P and Q by numeric IC50 and name the larger one. When you have decided, please share the label of that item.
Result :: P
(P: 7420 nM, Q: 73 nM)

----------
Target protein (sequence): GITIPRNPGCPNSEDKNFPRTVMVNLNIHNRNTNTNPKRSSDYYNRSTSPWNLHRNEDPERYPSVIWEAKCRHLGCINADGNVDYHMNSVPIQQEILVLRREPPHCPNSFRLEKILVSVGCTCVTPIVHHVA
readout kind: IC50 (nM)

Example compounds with recorded IC50:
compound	IC50 [nM]
Cn1nccc1C(=O)NC(C(=O)Nc1cc(Cc2ccc(=O)n(C)c2)ccn1)C1CCC(F)(F)CC1 (stereo not drawn) [Example 52]	23900
CC(c1ccnc(NC(=O)[C@@H](NC(=O)c2ccnn2C)C2CCC(F)(F)CC2)c1)N1C[C@@H](C(F)(F)F)NC1=O (single isomer, unassigned) [Example 171]	67
CCc1conc1C(=O)N[C@H](C(=O)Nc1cc([C@@H](COC)N2CC(F)(F)CNC2=O)ccn1)C1CCC(F)(F)CC1 [Example 177]	24
Cn1nccc1C(=O)N[C@H](C(=O)Nc1cc(CC(=O)NCCC(F)(F)F)ccn1)C(C1CC1)C1CC1 [Example 31]	5060

[I] C[C@H]1CC[C@H]([C@H](NC(=O)c2nonc2C2CC2)C(=O)Nc2cc(C(CO)N3C[C@@H](C(F)(F)F)NC3=O)ccn2)CC1 (single isomer, unassigned) [Example 234]
[II] O=C(CCC(F)(F)F)NC(c1ccnc(NC(=O)[C@@H](NC(=O)c2nonc2C2CC2)C2CCC(F)(F)CC2)c1)C1CC1 (stereo partly drawn) [Example 96]
[III] O=C(N[C@H](C(=O)Nc1cc(CN2C[C@@H](C(F)(F)F)NC2=O)ccn1)C1CCC(F)(F)CC1)OCc1ccccc1 (stereo in doubt) [Example 10]
Query :: Please rank these compounds by IC50 in descending order. As an answer, provide the labels arranged in the order called for.
Result :: III, II, I

[I] CC(C)n1nccc1C(=O)N[C@H](C(=O)Nc1cc(CN2C[C@@H](C(F)(F)F)NC2=O)ccn1)C1CCC(F)(F)CC1 [Example 12]
[II] CC(C)(C)OC(=O)N[C@H](C(=O)Nc1cc(CN2C(=O)NC(C)(C)C2=O)ccn1)C1CCC(F)(F)CC1 [Example 27]
Query :: Of I and II , whose reported IC50 is numerically smaller? When you have decided, please share the label of that item.
Result :: I
(I: 106 nM, II: 14900 nM)

[I] O=C(CCC(F)(F)F)NC(c1ccnc(NC(=O)[C@@H](NC(=O)c2ncco2)C2CCC(F)(F)CC2)c1)C1CC1 (stereo partly drawn) [Example 105]
[II] COC[C@H](c1ccnc(NC(=O)[C@@H](NC(=O)c2conc2C)C2CCC(Cl)CC2)c1)N1C[C@@H](C(F)(F)F)NC1=O (stereo partly drawn) [Example 313]
Query :: Of I and II , whose reported IC50 is numerically smaller? When you have decided, please share the label of that item.
Result :: II
(II: 109 nM, I: 3340 nM)
